- assayed_target: Nuclear receptor coactivator 1 (Homo sapiens) (UniProt Q15788)
- Sequence (Q15788 whole entry, looked up): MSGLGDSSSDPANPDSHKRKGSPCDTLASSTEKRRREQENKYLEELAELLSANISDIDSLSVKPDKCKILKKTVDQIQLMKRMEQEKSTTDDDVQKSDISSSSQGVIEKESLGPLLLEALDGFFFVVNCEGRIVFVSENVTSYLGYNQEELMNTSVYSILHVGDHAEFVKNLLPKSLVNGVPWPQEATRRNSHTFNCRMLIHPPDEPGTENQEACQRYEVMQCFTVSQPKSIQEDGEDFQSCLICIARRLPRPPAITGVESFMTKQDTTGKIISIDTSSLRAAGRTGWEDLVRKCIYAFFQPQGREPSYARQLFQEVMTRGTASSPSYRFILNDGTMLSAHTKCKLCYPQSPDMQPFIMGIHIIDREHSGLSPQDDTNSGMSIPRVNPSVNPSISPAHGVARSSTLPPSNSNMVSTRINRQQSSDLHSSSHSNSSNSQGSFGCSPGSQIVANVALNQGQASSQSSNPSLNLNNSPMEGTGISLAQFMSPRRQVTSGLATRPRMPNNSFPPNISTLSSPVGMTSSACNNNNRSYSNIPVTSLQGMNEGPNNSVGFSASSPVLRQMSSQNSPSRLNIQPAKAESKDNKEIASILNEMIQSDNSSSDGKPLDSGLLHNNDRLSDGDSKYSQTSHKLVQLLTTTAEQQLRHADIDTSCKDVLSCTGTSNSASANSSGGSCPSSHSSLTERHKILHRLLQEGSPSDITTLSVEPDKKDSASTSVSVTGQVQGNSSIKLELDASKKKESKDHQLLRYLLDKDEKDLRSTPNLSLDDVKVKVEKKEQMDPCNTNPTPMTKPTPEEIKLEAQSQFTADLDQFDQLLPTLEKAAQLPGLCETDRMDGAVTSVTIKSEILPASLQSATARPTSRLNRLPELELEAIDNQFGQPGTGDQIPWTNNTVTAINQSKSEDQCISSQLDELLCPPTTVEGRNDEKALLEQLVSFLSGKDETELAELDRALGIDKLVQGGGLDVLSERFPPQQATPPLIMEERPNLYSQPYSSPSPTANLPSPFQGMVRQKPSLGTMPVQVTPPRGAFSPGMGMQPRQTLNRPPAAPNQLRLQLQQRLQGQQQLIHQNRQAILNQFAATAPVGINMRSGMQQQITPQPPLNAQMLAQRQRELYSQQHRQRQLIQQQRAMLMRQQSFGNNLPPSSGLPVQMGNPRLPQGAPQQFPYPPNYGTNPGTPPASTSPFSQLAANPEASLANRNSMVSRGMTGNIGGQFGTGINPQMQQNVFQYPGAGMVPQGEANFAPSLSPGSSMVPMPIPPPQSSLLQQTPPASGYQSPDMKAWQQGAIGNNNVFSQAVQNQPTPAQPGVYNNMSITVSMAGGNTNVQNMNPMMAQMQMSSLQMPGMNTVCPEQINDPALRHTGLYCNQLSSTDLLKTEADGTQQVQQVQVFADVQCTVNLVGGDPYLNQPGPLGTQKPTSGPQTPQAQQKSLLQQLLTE
- procedure_details: SRC1 coactivator transcriptional activity inhibitors, confirmation, cell-based, luminescence, quadruplicate (AID 588820);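 also: 0% = DMSO wells and 100% = gossypol 36 µM treated wells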
- condition_notes: HEK293 GAL4-SRC1 luciferase reporter, at 3.6 µM, stronger effect = higher value
parameter_measured: inhibition (%)
Express your answer in %, writing the number without its unit.

A selection of reference data follows.
# molecule, scale_unit, value_observed
data = [
    ("Cc1cnc(C(=O)Nc2cccc3cccnc23)cn1", "%", -34.4),
    ("Cc1cc(C(=O)CSc2nc3ccccc3[nH]2)c(C)n1CC1CCCO1 (stereo unspecified)", "%", -86.8),
    ("Cc1ccc(C(=O)Nc2nc(-c3ccccn3)cs2)cc1S(=O)(=O)N1CCOCC1", "%", 13.8),
    ("CC(=O)c1cccc(NC(=O)c2ccc(CN3CCc4ccccc4C3)cc2)c1", "%", -1.99),
    ("CC1Cc2cc(-c3csc(NC(=O)Cc4cccs4)n3)ccc2N1S(C)(=O)=O (stereo unspecified)", "%", -1.43),
]

Next:
Qu. Entry Cc1ccc(S(=O)(=O)N2CCN(c3ncnc4sccc34)CC2)cc1C : reported inhibition = ?
Ans. -1.32

====

The following compounds are shown together with reported inhibition values.
- assayed_target: Nuclear receptor coactivator 1 (Homo sapiens)
- procedure_details: SRC1 coactivator transcriptional activity inhibitors, confirmation, cell-based, luminescence, quadruplicate (AID 588820);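 also: 0% = DMSO wells and 100% = gossypol 36 µM treated wells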
- condition_notes: HEK293 GAL4-SRC1 luciferase reporter, at 3.6 µM, stronger effect = higher value
Express your answer in %, writing the number without its unit.

Qu. Entry Cc1ccc(C(=O)C(C(=O)/C=C/c2ccccc2)=C2SCCCS2)cc1 : reported inhibition = ?
Ans. 44.4

Qu. Entry O=[N+]([O-])c1ccc(O)c(/C=N/Nc2ccc(Cl)nn2)c1 : reported inhibition = ?
Ans. 73.1

Qu. Entry COc1cc(C(=O)/C=C/c2cccnc2)c([N+](=O)[O-])cc1OC : reported inhibition = ?
Ans. 29.4

Qu. Entry COc1cccc(-c2nnc3sc(C4CCCCC4)nn23)c1 : reported inhibition = ?
Ans. 57.4

====

- Tested on: transactivating tegument protein VP16 (Human herpesvirus 1), Gal4-VP16 luciferase reporter
- procedure_details: VP16 transactivation inhibitors, counter-screen for SRC3 inhibitor project, cell-based, luminescence, high throughput (AID 588794)
- condition_notes: mammalian cells, VP16-driven luciferase reporter luminescence; at 3.6 µM; stronger effect = higher value
The source made the active and inactive calls. Cut-off read from the data, not from the text of the source: active = inhibition above about 30%; inactive = the rest.
The following compounds are shown together with reported inhibition values.

A selection of reference data follows.
# smiles_text, assayed_target, inhibition
records = [
    ("Cc1ccc2nc(NC(=O)CSCC(=O)OCC(=O)c3ccc(Br)cc3)sc2c1", "transactivating tegument protein VP16 (Human herpesvirus 1), Gal4-VP16 luciferase reporter", "40.5% (active)"),
    ("Cc1cc([N+](=O)[O-])nn1Cc1ccc(C(=O)N/N=C/c2ccc(O)cc2O)cc1", "transactivating tegument protein VP16 (Human herpesvirus 1), Gal4-VP16 luciferase reporter", "63.4% (active)"),
    ("COc1ccccc1C(=O)Nc1nc2ccccc2s1", "transactivating tegument protein VP16 (Human herpesvirus 1), Gal4-VP16 luciferase reporter", "79.6% (active)"),
]

Qu. Entry Cc1nc2ccccn2c1-c1ccnn1S(=O)(=O)c1ccc(F)cc1 : reported inhibition = ?
Ans. 12.3% (inactive)

Qu. Entry O=C(Nc1nc(-c2ccc(S(=O)(=O)N3CCOCC3)cc2)cs1)c1ccccc1 : reported inhibition = ?
Ans. 19% (inactive)

====

- procedure_details: VP16 transactivation reporter inhibitors, counter-screen for LRH-1 inverse agonist project, cell-based, luminescence, high throughput (AID 651615)
- condition_notes: Gal4-VP16 luciferase reporter cells, at 3.6 µM, stronger effect = higher value
The following compounds are shown together with reported inhibition values.
Express your answer in %, writing the number without its unit.

A selection of reference data follows.
# compound, scale_unit, value_observed
rows = [
    ("COc1ccc(NC(=O)CN2C(=O)C(C)SC(C)C2=O)c(OC)c1 (stereo unspecified)", "%", 11.3),
    ("Cc1ccc(NC2=C(N3CCCCC3)C(=O)c3ccccc3C2=O)cc1", "%", -11.3),
    ("Cc1ccc(NC(=O)c2ccc([N+](=O)[O-])o2)cc1S(=O)(=O)N1CCOCC1", "%", -4.03),
    ("Cc1cccc(NC(=O)COC(=O)c2cccs2)c1C", "%", 9.54),
    ("O=C(Nc1nc2ccccc2[nH]1)c1ccccc1F", "%", -10.4),
]

Qu. Entry Cc1ccc(CNC(=O)COc2ccc(C(=O)c3ccc(F)cc3)cc2)cc1 : reported inhibition = ?
Ans. -11.9

Qu. Entry CCOc1ccc(CCNC(=O)COC(=O)CCC(=O)c2cccs2)cc1OCC : reported inhibition = ?
Ans. -6.57

====

- assayed_target: Steroidogenic factor 1 (Homo sapiens) (UniProt Q13285)
- Sequence (Q13285 whole entry, looked up): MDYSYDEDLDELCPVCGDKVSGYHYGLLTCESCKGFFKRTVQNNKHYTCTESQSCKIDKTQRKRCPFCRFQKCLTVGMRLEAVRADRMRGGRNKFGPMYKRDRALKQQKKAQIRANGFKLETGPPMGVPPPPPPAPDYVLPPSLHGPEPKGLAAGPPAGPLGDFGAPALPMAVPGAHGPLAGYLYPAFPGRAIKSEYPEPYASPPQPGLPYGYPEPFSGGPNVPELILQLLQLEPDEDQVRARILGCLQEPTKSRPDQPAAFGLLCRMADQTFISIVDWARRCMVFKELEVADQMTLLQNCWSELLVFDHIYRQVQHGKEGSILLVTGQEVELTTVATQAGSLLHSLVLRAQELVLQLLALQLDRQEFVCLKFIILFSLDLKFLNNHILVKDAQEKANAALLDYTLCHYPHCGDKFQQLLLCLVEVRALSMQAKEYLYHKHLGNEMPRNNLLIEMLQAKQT
- procedure_details: SF1 (NR5A1) inverse agonists, counter-screen for LRH-1 inverse agonist project, cell-based, luminescence, high throughput (AID 651614);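 also: cells cotransfected with StAR promoter reporter and SF1 expression vector; 0% = vehicle on cells with receptor and 100% = vehicle on cells lacking receptor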
- condition_notes: cell-based SF1 luciferase reporter, at 3.6 µM, stronger effect = higher value
parameter_measured: inhibition (%)
Express your answer in %, writing the number without its unit.

A selection of reference data follows.
# compound, scale_unit, inhibition
records = [
    ("CCOC(=O)c1cc(-c2ccncc2)nc2c1c(C)nn2-c1ccccn1", "%", 48),
    ("N#CCCn1cc(/C=N/NC(N)=S)c(-c2ccc(-c3ccccc3)cc2)n1", "%", 48.6),
    ("CC(=O)c1ccc(NC(=O)C(C)O/N=C(\\N)c2ccccc2)cc1 (stereo not given)", "%", 41.8),
    ("OCC1OC(n2cnc3c(/C=C(\\O)c4ccccc4)ncnc32)C(O)C1O (stereo not given)", "%", -0.35),
    ("Cc1ccc(CC(=O)Nc2ccncc2)cc1", "%", 64.9),
    ("Cn1cc(C(=O)c2ccc(Cl)cc2)cc1-c1nc2ccccc2n1C", "%", 49.8),
    ("Cc1ccc(S(=O)(=O)Oc2ccccc2/C=N/NC(N)=S)cc1", "%", 66.8),
    ("O=C(c1ccc(Oc2ccc([N+](=O)[O-])cc2Cl)cc1)N1CCCC1", "%", 58.9),
    ("O=C(NC(NNc1ccc([N+](=O)[O-])cc1)(C(F)(F)F)C(F)(F)F)c1ccccc1Cl", "%", 34.1),
]

Next:
Qu. Entry CC(=O)N1CCN(c2ccc(NC(=O)c3ccc([N+](=O)[O-])o3)cc2Cl)CC1 : reported inhibition = ?
Ans. 65.1

====

- assayed_target: Nuclear receptor coactivator 1 (Homo sapiens) (UniProt Q15788)
- procedure_details: SRC1 coactivator transcriptional activity inhibitors, confirmation, cell-based, luminescence, quadruplicate (AID 588820);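 also: 0% = DMSO wells and 100% = gossypol 36 µM treated wells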
- condition_notes: HEK293 GAL4-SRC1 luciferase reporter, at 3.6 µM, stronger effect = higher value
parameter_measured: inhibition (%)
Express your answer in %, writing the number without its unit.

A selection of reference data follows.
# smiles_text, assayed_target, parameter_measured, value_observed
rows = [
    ("CCN1C(=O)c2cccc3c(S(=O)(=O)Nc4ccc(O)c(C(=O)O)c4)ccc1c23", "Nuclear receptor coactivator 1 (Homo sapiens) (UniProt Q15788)", "inhibition", 5.84),
    ("CCCCCCn1c2c(c(=N)c3c1CCC3)CCC2", "Nuclear receptor coactivator 1 (Homo sapiens) (UniProt Q15788)", "inhibition", 55.4),
    ("S=C(NN=C(c1ccccc1)c1ccccn1)N(Cc1ccccn1)Cc1ccccn1", "Nuclear receptor coactivator 1 (Homo sapiens) (UniProt Q15788)", "inhibition", 85),
    ("CN(Cc1nccs1)C(=O)c1cc(COc2cccc3cnccc23)on1", "Nuclear receptor coactivator 1 (Homo sapiens) (UniProt Q15788)", "inhibition", 19.8),
    ("CCN(CC)c1ccc2nc3ccccc3[n+](CC)c2c1", "Nuclear receptor coactivator 1 (Homo sapiens) (UniProt Q15788)", "inhibition", 40.5),
]

Qu. Entry NC(=O)c1cccc(-c2cnc(N)c(C(=O)c3cccnc3)n2)c1 : reported inhibition = ?
Ans. 65.9

====

- assayed_target: Protein phosphatase methylesterase 1 (Homo sapiens)
- procedure_details: PME-1 inhibitor activity retest, confirmation, biochemical, fluorescence polarization, FP-Rh probe, triplicate (AID 2171);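 also: 0% = enzyme with DMSO and 100% = wells lacking PME-1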
- condition_notes: recombinant PME-1, FP-Rh probe fluorescence polarization; at 5.9 µM; stronger effect = higher value
# label = true if inhibition >= 20% else false

# compound, label_value
records = [
    ("CC(C)NC(=S)N=Nc1c(O)[nH]c2ccc(C(C)C)cc12", "true"),
    ("CCNc1ccc2noc3c2c1C(=O)c1ccccc1-3", "true"),
]

Qu. Check this compound for inhibition at or above 20%: O=C(OCCOCCN=C1NS(=O)(=O)c2ccccc21)c1ccccc1Br
Ans. false

Qu. Check this compound for inhibition at or above 20%: COc1cc2c(C#N)c(N3CCN(c4ccccc4OC)CC3)nc(N)c2c(N)n1
Ans. true

Qu. Check this compound for inhibition at or above 20%: O=C1C(CSCc2ccccc2)NC(=S)N1c1ccccc1 (stereo not drawn)
Ans. false

Qu. Check this compound for inhibition at or above 20%: O=C(OCCN(C1=NS(=O)(=O)c2ccccc21)c1ccc(Cl)cc1)c1ccco1
Ans. true

Qu. Check this compound for inhibition at or above 20%: Cc1ccc(-c2ccccc2NC(=O)CS(=O)CC(=O)Nc2ccc(C)c(Cl)c2)o1 (stereo not drawn)
Ans. false

Qu. Check this compound for inhibition at or above 20%: Cc1ccc(C)c(-n2c3nc(=O)[nH]c(=O)c-3cc3cc([N+](=O)[O-])ccc32)c1
Ans. true
